In this section, each of the compounds is paired with its reported TGI.
- Test system: HCT-116 colon
- assay comment: NCI tumour cell line growth inhibition, 48 h

>  <compound>
N#CC1([N+](=O)[O-])C=C1c1ccccc1 (stereo not given)

>  <metric name>
TGI

>  <result>
> 100 µM

$$$$
>  <compound>
O[C@H]1[C@@H]2OC[C@@H](O)[C@H](OCc3ccccc3)[C@@](COCc3ccccc3)(O2)[C@@H]1OCc1ccccc1

>  <metric name>
TGI

>  <result>
47.5 µM

$$$$
>  <compound>
CC(C)(C)OC(=O)CC(NC(=O)OC(C)(C)C)C(=O)Oc1ccc([N+](=O)[O-])cc1 (stereo not given)

>  <metric name>
TGI

>  <result>
> 100 µM

$$$$
>  <compound>
COC(=O)C1=C(O)C(C(=O)OC)[C@@]2(O)[C@@H](C(=O)OC)C(c3ccccc3Cl)C[C@@H]1[C@@H]2C(=O)OC (stereo not given in full)

>  <metric name>
TGI

>  <result>
4.12 µM

$$$$
>  <compound>
O=c1[nH]c(Br)nc2c(N3CCCCC3)c[nH]c12

>  <metric name>
TGI

>  <result>
> 100 µM

$$$$
>  <compound>
CC1(C)N=C(N)N=C(N)N1c1ccc(CCC(=O)Nc2cccc(S(=O)(=O)F)c2)cc1

>  <metric name>
TGI

>  <result>
> 100 µM

$$$$
>  <compound>
CC(=O)CC(=O)ON(C)C(=O)Cc1ccccc1

>  <metric name>
TGI

>  <result>
> 100 µM

$$$$
>  <compound>
COc1ccc(/C=C2\CC3C4CC=C5C[C@@H](O)CC[C@]5(C)C4CC[C@]3(C)C2=O)cc1OC (stereo not given in full)

>  <metric name>
TGI

>  <result>
> 100 µM

$$$$
>  <compound>
CCNC(CCCC(NCC)P(=O)(O)O)P(=O)(O)O (stereo not given)

>  <metric name>
TGI

>  <result>
> 100 µM

$$$$
>  <compound>
O=C1CC2OCC=C3CN4CCC56c7ccccc7N1C5C2C3CC46 (stereo not given) (tested in a mixture with another compound)

>  <metric name>
TGI

>  <result>
> 50 µg/mL

$$$$

Task item: Would you please give the reported TGI of Nc1cc(N)c2nc(-c3ccccc3)c(Oc3ccc(Cl)c(Cl)c3)nc2c1 with HCT-116 colon?
Reply: 48.3 µM

Task item: Would you please give the reported TGI of O=C(Nc1ccc(N2CCNCC2)cn1)c1[nH]ncc1Nc1ncnc2sc3c(c12)CCC3 with HCT-116 colon?
Reply: 2.18 µM

Task item: Would you please give the reported TGI of O=c1[nH]c(=S)c2[nH]c(=O)n(-c3ccccc3)c2[nH]1 with HCT-116 colon?
Reply: > 100 µM

Task item: Would you please give the reported TGI of CCCC(=O)Oc1cc(OC(=O)CCC)c2c(C)cc(=O)oc2c1 with HCT-116 colon?
Reply: > 100 µM

Task item: Would you please give the reported TGI of Fc1ccc(C(OCCN2CCC3CCC(C2)N3C/C=C/c2cccnc2)c2ccc(F)cc2)cc1 (stereo not given) with HCT-116 colon?
Reply: 19 µM

====

- Test system: A549 NSCLC
- assay comment: NCI tumour cell line growth inhibition, 48 h
In this section, each of the compounds is paired with its reported TGI.

>  <compound>
CC1(C)N=C(N)N=C(N)N1c1ccc(CCC(=O)Nc2cccc(S(=O)(=O)F)c2)cc1

>  <TGI>
> 100 µM

$$$$

Task item: Determine its reported TGI: C/C=C1/C(=O)O[C@]23C=C[C@@H]4C(C(=O)OC)=CO[C@H](O[C@@H]12)[C@@H]43
Reply: 11.1 µM

Task item: Determine its reported TGI: Cc1ccc(C(=O)C(C)N)cc1C (stereo not given)
Reply: > 100 µM

Task item: Determine its reported TGI: NNC(=O)N/N=C1/C(=O)N(c2ccc(Cl)c(Cl)c2)C(=O)C(=O)C1c1nc2ccccc2o1 (stereo not given)
Reply: > 100 µM

Task item: Determine its reported TGI: Cc1ccc2c(c1)C/C(=C\c1ccccc1C(=O)O)C2=O
Reply: > 100 µM

====

- Tested on: MALME-3M melanoma
- assay comment: NCI tumour cell line growth inhibition, 48 h
metric name: GI50

Solved cases (2 shown):
>  <compound>
Nc1cc(N)c2nc(-c3ccccc3)c(Oc3ccc(Cl)c(Cl)c3)nc2c1

>  <result>
15.8 µM

$$$$
>  <compound>
C=C1C(OCCO)OC2O[C@]3(C)CCC4[C@H](C)CCC1C24OO3 (stereo partly drawn)

>  <result>
52.7 µM

$$$$

Now consider a different compound.
Task item: Determine its reported GI50: COc1ccc(-c2cc3c(N)ncnc3o2)cc1
Reply: 15.5 µM

====

- System: TK-10 renal
- assay comment: NCI tumour cell line growth inhibition, 48 h
metric name: TGI

Solved cases (2 shown):
>  <compound>
Fc1ccc(C(OCCN2CCC3CCC(C2)N3C/C=C/c2cccnc2)c2ccc(F)cc2)cc1 (stereo not drawn)

>  <TGI>
24 µM

$$$$
>  <compound>
Cc1ccc(SSCCCCS(=O)O)cc1

>  <TGI>
46.8 µM

$$$$

Now consider a different compound.
Task item: Would you please give the reported TGI of Cc1ccc2c(c1)C/C(=C\c1ccccc1C(=O)O)C2=O with TK-10 renal?
Reply: > 100 µM

====

- Test system: OVCAR-3 ovarian
- assay comment: NCI tumour cell line growth inhibition, 48 h
In this section, each of the compounds is paired with its reported TGI.

>  <compound>
N#CC(CC(=O)O)=C(c1ccccc1)c1ccccc1

>  <target or test system>
OVCAR-3 ovarian

>  <metric name>
TGI

>  <result>
> 100 µM

$$$$

Task item: Determine its reported TGI: CC1(C)N=C(N)N=C(N)N1CCCCc1ccccc1
Reply: > 36.8 µM

Task item: Determine its reported TGI: N#CC12CC3(CCC1CCC1(C2)OCCO1)OCCO3 (centres undefined)
Reply: > 100 µM

Task item: Determine its reported TGI: Cc1ccc2c(c1)C/C(=C\c1ccccc1C(=O)O)C2=O
Reply: > 100 µM

Task item: Determine its reported TGI: CC(=O)Nc1ccccc1S(=O)c1ccccc1 (centres undefined)
Reply: > 100 µM

Task item: Determine its reported TGI: O=c1cc(-c2cccc(Br)c2)[nH]c2cc3c(cc12)OCO3
Reply: 9.5 µM

Task item: Determine its reported TGI: Cc1c(C=C(C#N)C#N)c(=O)n(C)c(=O)n1C
Reply: > 100 µM

Task item: Determine its reported TGI: Nc1nc(Cl)c2ncn(Cc3ccc(-c4ccc(CCl)cc4)cc3)c2n1
Reply: 32 µM

Task item: Determine its reported TGI: CC1(C)N=C(N)N=C(N)N1c1ccc(CCC(=O)Nc2cccc(S(=O)(=O)F)c2)cc1
Reply: > 100 µM

====

- Test system: SK-OV-3 ovarian
- assay comment: NCI tumour cell line growth inhibition, 48 h
In this section, each of the molecules is paired with its reported TGI.

>  <molecule>
COc1cc(OC)cc(Oc2nc3c(N)cc(C(F)(F)F)cc3nc2-c2ccccc2)c1

>  <result>
> 100 µM

$$$$
>  <molecule>
COC(=O)/C=C/N1CC1

>  <result>
> 10 µM

$$$$

Task item: Determine its reported TGI: C[C@H](c1ccc(Cl)cc1[N+](=O)[O-])N1C(=O)c2cc(I)ccc2NC(=O)[C@H]1c1ccc(Cl)cc1
Reply: > 100 µM

Task item: Determine its reported TGI: Cc1ccc(C(=O)C(C)N)cc1C (stereo not given)
Reply: > 100 µM

Task item: Determine its reported TGI: O=C1CC2OCC=C3CN4CCC56c7ccccc7N1C5C2C3CC46 (stereo not given) (tested in a mixture with another compound)
Reply: > 50 mg/L

====

In this section, each of the compounds is paired with its reported TGI.
- Test system: HOP-62 NSCLC
- assay comment: NCI tumour cell line growth inhibition, 48 h

>  <compound>
O=C(O)CCCN=C(C(=NCCCC(=O)O)c1ccccc1)c1ccccc1

>  <metric name>
TGI

>  <result>
> 100 µM

$$$$
>  <compound>
Cc1ccc(C(=O)C(C)N)cc1C (configuration not stated)

>  <metric name>
TGI

>  <result>
> 100 µM

$$$$
>  <compound>
Fc1ccc(C(OCCN2CCC3CCC(C2)N3C/C=C/c2cccnc2)c2ccc(F)cc2)cc1 (configuration not stated)

>  <metric name>
TGI

>  <result>
31 µM

$$$$
>  <compound>
COC1=CC(=O)C2C(C1=O)[C@@H]1c3ccccc3OC[C@H]21 (some centres not stated)

>  <metric name>
TGI

>  <result>
> 100 µM

$$$$
>  <compound>
C=C1CC(CC(=O)C(C)CC2CC(=C)C(=O)O2)OC1=O (configuration not stated)

>  <metric name>
TGI

>  <result>
> 100 µM

$$$$
>  <compound>
C/C(=N\NS(=O)(=O)c1ccccc1)c1ccc[n+]([O-])n1

>  <metric name>
TGI

>  <result>
> 100 µM

$$$$
>  <compound>
COc1ccc2oc3c(ccc[n+]3C)c(=O)c2c1

>  <metric name>
TGI

>  <result>
> 100 µM

$$$$
>  <compound>
CCN(CC)c1ccc(N=C2C=CC(=C(C#N)C#N)c3ccccc32)c(C)c1

>  <metric name>
TGI

>  <result>
6.25 µM

$$$$
>  <compound>
COc1ccc2c(c1)C(=O)c1c-2n(CCCNCCO)c(=O)c2cc([N+](=O)[O-])ccc12

>  <metric name>
TGI

>  <result>
0.145 µM

$$$$
>  <compound>
COc1cc(OC)c2c(c1Cl)O[C@]1(C2=O)C(OCc2ccccc2)=CC(=O)C[C@H]1C

>  <metric name>
TGI

>  <result>
62.2 µM

$$$$

Task item: Determine its reported TGI: CCOC(=O)c1c(CN2CCOCC2)n(Cc2ccccc2)c2c1cc(O)c1nc(C)c(C)nc12
Reply: 51.1 µM
